- TARGET_ENTITY: 5-hydroxytryptamine receptor 1A (Homo sapiens, UniProt P08908)
- Sequence (P08908 whole entry): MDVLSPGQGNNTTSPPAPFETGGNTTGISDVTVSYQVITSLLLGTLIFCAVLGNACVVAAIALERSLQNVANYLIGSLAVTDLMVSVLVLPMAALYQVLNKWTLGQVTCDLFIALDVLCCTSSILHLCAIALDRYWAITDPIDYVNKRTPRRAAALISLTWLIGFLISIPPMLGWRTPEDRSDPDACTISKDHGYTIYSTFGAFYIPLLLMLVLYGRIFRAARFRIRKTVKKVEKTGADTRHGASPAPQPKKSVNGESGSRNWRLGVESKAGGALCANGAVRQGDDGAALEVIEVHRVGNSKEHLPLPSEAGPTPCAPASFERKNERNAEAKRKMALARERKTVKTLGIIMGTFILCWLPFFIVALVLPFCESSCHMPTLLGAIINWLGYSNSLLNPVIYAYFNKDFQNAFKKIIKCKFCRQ
pKi: −log10 of the molar value.
Let's look at some pKi data for 5-hydroxytryptamine receptor 1A (Homo sapiens, UniProt P08908) that I collected from the literature.
Tag: Fulfilled if measured pKi is not below 7, Not fulfilled if it is.

Check out these entries, answers already filled in.
INSERT INTO measurements (compound, qualitative_label) VALUES
  ('Cc1ccc2c(OCCN3CCC(Cc4ccc5c(c4)NC(=O)CO5)CC3)c(F)ccc2n1', 'Fulfilled'),
  ('O=C1c2ccccc2S(=O)(=O)N1CCCCCCN1CCN(c2cccc(C(F)(F)F)c2)CC1', 'Fulfilled'),
  ('N#Cc1ccc(CNC(=O)CCCCCN2CCN(c3ccc(F)cc3-c3ccc(C#N)cc3)CC2)cc1', 'Not fulfilled');

*Q* Does COc1ccccc1N1CCN(CCCCNC(=O)[C@H](CC(N)=O)NC(=O)CC2CC3CCC2C3)CC1 (stereo not given in full) have a reported pKi of at least 7?
*A* Fulfilled

*Q* hey, is pKi for this one >= 7? CCC(Oc1cc(C(F)(F)F)ccc1F)c1nc(N)nc(N2CCN(C)CC2)n1 (stereo not given)
*A* Not fulfilled

*Q* Would you say c1ccc2c(c1)CC(CN1CCN(c3ccc4c(c3)OCCO4)CC1)C2 shows pKi at minimum 7?
*A* Not fulfilled

*Q* Reported pKi at or above 7? CN(C)CCCN1C(=O)c2ccccc2/C=C\c2ccccc21
*A* Not fulfilled

*Q* Given the entry O=C(NC1CCc2ccc(CCN3CCN(c4nsc5ccccc45)CC3)cc21)C(F)(F)F (stereo not given) , answer whether its pKi meets or surpasses 7.
*A* Fulfilled

====

Field: Ki. System: the protein given by its sequence. Provenance: assorted publications.
Protein target, amino acids: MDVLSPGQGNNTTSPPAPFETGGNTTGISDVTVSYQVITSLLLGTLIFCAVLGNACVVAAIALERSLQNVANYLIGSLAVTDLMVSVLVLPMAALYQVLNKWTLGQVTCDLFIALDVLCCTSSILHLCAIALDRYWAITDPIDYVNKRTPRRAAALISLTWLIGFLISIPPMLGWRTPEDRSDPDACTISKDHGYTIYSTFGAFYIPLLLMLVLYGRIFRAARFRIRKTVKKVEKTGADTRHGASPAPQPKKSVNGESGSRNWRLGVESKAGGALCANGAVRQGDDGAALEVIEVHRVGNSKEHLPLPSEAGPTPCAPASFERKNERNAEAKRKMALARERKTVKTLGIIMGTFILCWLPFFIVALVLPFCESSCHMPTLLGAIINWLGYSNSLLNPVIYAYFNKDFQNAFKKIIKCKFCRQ
Label 1 when Ki < 20 nM; otherwise 0.

Past entries and their recorded results:
INSERT INTO results (molecule, qualitative_label) VALUES
  ('O[C@@H](COc1cccc2[nH]ccc12)CN1CCC(c2csc3ccccc23)CC1', 1),
  ('O=C(CCCN1CCN(c2ccccc2)CC1)c1nc2ccccc2s1', 0),
  ('CCCC(=O)NC1CCc2ccc(CCN3CCN(c4nsc5ccccc45)CC3)cc21 (stereo not given)', 1),
  ('COc1ccc2c(=O)c3cc(CN4CCN(Cc5ccccc5)CC4)ccc3oc2c1.Cl.Cl', 0);

*Q* Threshold test, Ki < 20 nM: COc1ccccc1N1CCN(CCC(O)c2cccs2)CC1 (stereo not given)
*A* 1
